- Target of assay: AIMP2-DX2 (Homo sapiens, UniProt Q13155)
- Sequence (Q13155 1-251 isoform Q13155-2): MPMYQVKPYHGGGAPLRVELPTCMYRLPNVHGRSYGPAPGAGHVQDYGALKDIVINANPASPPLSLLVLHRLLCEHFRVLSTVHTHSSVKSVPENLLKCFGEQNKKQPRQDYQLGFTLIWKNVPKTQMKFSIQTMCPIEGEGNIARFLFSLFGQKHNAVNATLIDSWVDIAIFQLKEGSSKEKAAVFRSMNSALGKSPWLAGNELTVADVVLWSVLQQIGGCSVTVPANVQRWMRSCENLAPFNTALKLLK
- Assay text: DX2-nanoluciferase assay (DX2 expression change) in transfected A549 cells
- Recorded conditions: A549, 4 h, read-out: DX-Nanoluciferase activity (40 μM), 40 μM, 4 hours treatment, A549 cells transfected with nanoluciferase-DX2; inhibitory effect on AIMP2-DX2 expression
Measurement label: inhibition at 40 µM (%)
Kindly provide the numeric value in % only, without the unit symbol.

// query What inhibition at 40 µM value was documented for this molecule, CC(C)C[C@H](NS(=O)(=O)c1ccc(C(F)(F)F)cc1)C(=O)Nc1ccc(N2CCOCC2)cc1 [Compound 23] ?
// result 24.5

// query Now consider COc1ccc(-c2csc(NC(=O)[C@H](Cc3c[nH]c4ccccc34)NS(=O)(=O)c3ccc(C(C)C)cc3)n2)cc1 [Compound 82] .
// result 29.3

// query Continue with Cc1ccc(S(=O)(=O)N[C@@H](Cc2c[nH]c3ccccc23)C(=O)Nc2ccc(N3CCOCC3)cc2)c(C)c1 [Compound 72]
// result 21.5

// query Then COc1ccc(S(=O)(=O)N[C@@H](Cc2c[nH]c3ccccc23)C(=O)Nc2ccc(N3CCOCC3)cc2)cc1 [Compound 80] ?
// result 44.9

// query Same again, this time with Cc1ccc(S(=O)(=O)N[C@@H](CC(C)C)C(=O)OCc2ccccc2)cc1 [Compound 49]
// result 43.1

// query What do you have for CC(C)C[C@H](NC(=O)c1ccc(C(C)(C)C)cc1)C(=O)Nc1ccc(N2CCOCC2)cc1 [Compound 59] ?
// result 45.7
